- Test system: Escherichia coli
- assay.comment: Antimicrobial activity against Escherichia coli isolated from infected patient assessed as diameter of growth inhibition zone at 40 ug/ml by disk diffusion method
- Type: functional
- test.parameters: read-out: DIZ
assay.readout: zone of inhibition at 40 µg/mL (mm)

{"columns": ["smiles", "assay.readout", "result.value"],
 "data": [
  ["Cc1cc(C(=O)/C=C/c2ccc[nH]2)c(C)o1", "zone of inhibition at 40 µg/mL", 18],
  ["O=C(/C=C/c1ccc[nH]1)c1ccsc1", "zone of inhibition at 40 µg/mL", 24],
  ["CCc1ccc(/C=C/C(=O)c2cc(C)oc2C)o1", "zone of inhibition at 40 µg/mL", 27],
  ["CCc1ccc(/C=C/C(=O)c2ccsc2)o1", "zone of inhibition at 40 µg/mL", 25],
  ["Cc1cc(C(=O)/C=C/c2c[nH]c3ccccc23)c(C)o1", "zone of inhibition at 40 µg/mL", 21],
  ["O=C(/C=C/c1c[nH]c2ccccc12)c1ccsc1", "zone of inhibition at 40 µg/mL", 20],
  ["Cc1cc(C(=O)/C=C/c2ccc(-c3ccccc3)cc2)c(C)o1", "zone of inhibition at 40 µg/mL", 23],
  ["COc1ccc(/C=C/C(=O)c2ccsc2)cc1", "zone of inhibition at 40 µg/mL", 26],
  ["COc1ccc(/C=C/C(=O)c2cc(C)oc2C)cc1", "zone of inhibition at 40 µg/mL", 21],
  ["O=C(/C=C/c1ccc(-c2ccccc2)cc1)c1ccsc1", "zone of inhibition at 40 µg/mL", 22]
]}

###

- Test system: Escherichia coli
- assay.comment: Antimicrobial activity against Escherichia coli isolated from infected patient assessed as growth inhibition by disk diffusion method
- Format: functional
assay.readout: MIC (mg/L)

{"columns": ["smiles", "reading.unit", "result.value"],
 "data": [
  ["Cc1cc(C(=O)/C=C/c2ccc(-c3ccccc3)cc2)c(C)o1", "mg/L", 20],
  ["Cc1cc(C(=O)/C=C/c2c[nH]c3ccccc23)c(C)o1", "mg/L", 40],
  ["CCc1ccc(/C=C/C(=O)c2cc(C)oc2C)o1", "mg/L", 40],
  ["O=C(/C=C/c1c[nH]c2ccccc12)c1ccsc1", "mg/L", 30],
  ["COc1ccc(/C=C/C(=O)c2cc(C)oc2C)cc1", "mg/L", 30],
  ["Cc1cc(C(=O)/C=C/c2ccc[nH]2)c(C)o1", "mg/L", 40],
  ["O=C(/C=C/c1ccc(-c2ccccc2)cc1)c1ccsc1", "mg/L", 30],
  ["COc1ccc(/C=C/C(=O)c2ccsc2)cc1", "mg/L", 20],
  ["O=C(/C=C/c1ccc[nH]1)c1ccsc1", "mg/L", 40],
  ["CCc1ccc(/C=C/C(=O)c2ccsc2)o1", "mg/L", 30]
]}

###

- System: Staphylococcus aureus
- assay.comment: Antimicrobial activity against Staphylococcus aureus isolated from infected patient assessed as growth inhibition by disk diffusion method
- Assay type: functional
Listing: MIC of selected compounds
assay.readout: MIC (µg/mL)

{"columns": ["smiles", "assay.readout", "result.value"],
 "data": [
  ["COc1ccc(/C=C/C(=O)c2cc(C)oc2C)cc1", "MIC", 40],
  ["CCc1ccc(/C=C/C(=O)c2cc(C)oc2C)o1", "MIC", 40],
  ["O=C(/C=C/c1ccc[nH]1)c1ccsc1", "MIC", 40],
  ["O=C(/C=C/c1c[nH]c2ccccc12)c1ccsc1", "MIC", 30]
]}

###

- Tested on: Salmonella typhi
- assay.comment: Antimicrobial activity against Salmonella enterica subsp. enterica serovar Typhi isolated from infected patient assessed as diameter of growth inhibition zone at 40 ug/ml by disk diffusion method
- Format: functional
- test.parameters: read-out: DIZ
assay.readout: zone of inhibition at 40 µg/mL (mm)

{"columns": ["smiles", "result.value"],
 "data": [
  ["Cc1cc(C(=O)/C=C/c2ccc[nH]2)c(C)o1", 19],
  ["O=C(O)c1cn(C2CC2)c2cc(N3CCNCC3)c(F)cc2c1=O", 23],
  ["COc1ccc(/C=C/C(=O)c2ccsc2)cc1", 24],
  ["O=C(/C=C/c1ccc[nH]1)c1ccsc1", 23],
  ["CCc1ccc(/C=C/C(=O)c2cc(C)oc2C)o1", 23],
  ["Cc1cc(C(=O)/C=C/c2c[nH]c3ccccc23)c(C)o1", 22]
]}

###

- Test system: Staphylococcus aureus
- assay.comment: Antimicrobial activity against Staphylococcus aureus isolated from infected patient assessed as growth inhibition by disk diffusion method
- Format: functional

{"columns": ["smiles", "MIC, µg/mL"],
 "data": [
  ["Cc1cc(C(=O)/C=C/c2ccc[nH]2)c(C)o1", 30],
  ["Cc1cc(C(=O)/C=C/c2c[nH]c3ccccc23)c(C)o1", 20],
  ["COc1ccc(/C=C/C(=O)c2ccsc2)cc1", 20],
  ["Cc1cc(C(=O)/C=C/c2ccc(-c3ccccc3)cc2)c(C)o1", 20],
  ["CCc1ccc(/C=C/C(=O)c2ccsc2)o1", 20],
  ["O=C(/C=C/c1ccc(-c2ccccc2)cc1)c1ccsc1", 30]
]}

###

- Tested on: Salmonella typhi
- assay.comment: Antimicrobial activity against Salmonella enterica subsp. enterica serovar Typhi isolated from infected patient assessed as diameter of growth inhibition zone at 40 ug/ml by disk diffusion method
- Type: functional
- test.parameters: read-out: DIZ
Listing: zone of inhibition at 40 µg/mL of selected compounds
assay.readout: zone of inhibition at 40 µg/mL (mm)

{"columns": ["smiles", "target.of.assay", "result.value"],
 "data": [
  ["O=C(/C=C/c1c[nH]c2ccccc12)c1ccsc1", "Salmonella typhi", 19],
  ["COc1ccc(/C=C/C(=O)c2cc(C)oc2C)cc1", "Salmonella typhi", 24],
  ["Cc1cc(C(=O)/C=C/c2ccc(-c3ccccc3)cc2)c(C)o1", "Salmonella typhi", 22],
  ["O=C(/C=C/c1ccc(-c2ccccc2)cc1)c1ccsc1", "Salmonella typhi", 15],
  ["CCc1ccc(/C=C/C(=O)c2ccsc2)o1", "Salmonella typhi", 26]
]}

###

- System: HepG2
- assay.comment: Cytotoxicity against Homo sapiens (human) HepG2 cells assessed as inhibition of cell viability by trypan blue exclusion method
- Type: functional
- test.parameters: read-out: LC50 (the source's name)
Classify on CC50 using bin 1: < 20 µg/mL; bin 2: ≥ 20 µg/mL and < 60 µg/mL; bin 3: ≥ 60 µg/mL

{"columns": ["smiles", "answer.label"],
 "data": [
  ["Cc1cc(C(=O)/C=C/c2ccc(-c3ccccc3)cc2)c(C)o1", "bin 3"],
  ["Cc1cc(C(=O)/C=C/c2c[nH]c3ccccc23)c(C)o1", "bin 3"],
  ["CCc1ccc(/C=C/C(=O)c2ccsc2)o1", "bin 1"],
  ["COc1ccc(/C=C/C(=O)c2ccsc2)cc1", "bin 1"],
  ["O=C(/C=C/c1ccc(-c2ccccc2)cc1)c1ccsc1", "bin 1"],
  ["CCc1ccc(/C=C/C(=O)c2cc(C)oc2C)o1", "bin 3"],
  ["O=C(/C=C/c1c[nH]c2ccccc12)c1ccsc1", "bin 2"],
  ["O=C(/C=C/c1ccc[nH]1)c1ccsc1", "bin 2"],
  ["COc1ccc(/C=C/C(=O)c2cc(C)oc2C)cc1", "bin 3"]
]}

###

- Test system: Bacillus subtilis
- assay.comment: Antimicrobial activity against Bacillus subtilis isolated from infected patient assessed as diameter of growth inhibition zone at 40 ug/ml by disk diffusion method
- Format: functional
- test.parameters: read-out: DIZ
Listing: zone of inhibition at 40 µg/mL of selected molecules
assay.readout: zone of inhibition at 40 µg/mL (mm)

{"columns": ["molecule", "assay.readout", "result.value"],
 "data": [
  ["O=C(/C=C/c1c[nH]c2ccccc12)c1ccsc1", "zone of inhibition at 40 µg/mL", 16],
  ["O=C(/C=C/c1ccc(-c2ccccc2)cc1)c1ccsc1", "zone of inhibition at 40 µg/mL", 18],
  ["O=C(/C=C/c1ccc[nH]1)c1ccsc1", "zone of inhibition at 40 µg/mL", 23],
  ["Cc1cc(C(=O)/C=C/c2c[nH]c3ccccc23)c(C)o1", "zone of inhibition at 40 µg/mL", 22],
  ["O=C(O)c1cn(C2CC2)c2cc(N3CCNCC3)c(F)cc2c1=O [CIPROFLOXACIN]", "zone of inhibition at 40 µg/mL", 23],
  ["Cc1cc(C(=O)/C=C/c2ccc[nH]2)c(C)o1", "zone of inhibition at 40 µg/mL", 21],
  ["CCc1ccc(/C=C/C(=O)c2ccsc2)o1", "zone of inhibition at 40 µg/mL", 25],
  ["COc1ccc(/C=C/C(=O)c2cc(C)oc2C)cc1", "zone of inhibition at 40 µg/mL", 23],
  ["Cc1cc(C(=O)/C=C/c2ccc(-c3ccccc3)cc2)c(C)o1", "zone of inhibition at 40 µg/mL", 24],
  ["COc1ccc(/C=C/C(=O)c2ccsc2)cc1", "zone of inhibition at 40 µg/mL", 24],
  ["CCc1ccc(/C=C/C(=O)c2cc(C)oc2C)o1", "zone of inhibition at 40 µg/mL", 24]
]}
